TARGET OR TEST SYSTEM: UniProt:Q72547
READOUT LABEL: IC50 (µM)

{"LINE NOTATION": "Cc1cc(Br)c(Oc2cc(Nc3ccc(C#N)cc3)nnc2Cl)c(Br)c1", "TARGET OR TEST SYSTEM": "UniProt:Q72547", "READOUT LABEL": "IC50", "EXPERIMENTAL RESULT": 3.18}

----------
TEST METHOD NOTES: Selectivity index, ratio of CC50 for mock-infected human MT4 cells to EC50 for wild type HIV1 3B
RUN PARAMETERS: mock-infected MT4 cells

{"LINE NOTATION": "N#Cc1ccc(Nc2cc(Oc3c(Cl)cc(Cl)cc3Cl)c(Cl)nn2)cc1", "selectivity ratio": 120}
{"LINE NOTATION": "COc1cccc(OC)c1Oc1cc(Nc2ccc(C#N)cc2)nnc1Cl", "selectivity ratio": "< 1"}
{"LINE NOTATION": "Cc1cc(C)c(Oc2cc(Nc3ccc(C#N)cc3)n[nH]c2=O)c(C)c1", "selectivity ratio": 180}
{"LINE NOTATION": "N#Cc1ccc(Nc2cc(Oc3c(Br)cc(Br)cc3Br)c(=O)[nH]n2)cc1", "selectivity ratio": 221}
{"LINE NOTATION": "Cc1cc(Br)c(Oc2cc(Nc3ccc(C#N)cc3)n[nH]c2=O)c(Br)c1", "selectivity ratio": 733}

----------
TEST METHOD NOTES: Selectivity index, ratio of CC50 for mock-infected human MT4 cells to EC50 for wild type HIV1 3B
RUN PARAMETERS: mock-infected MT4 cells
Reported selectivity ratio values for the following compounds.
READOUT LABEL: selectivity ratio

{"LINE NOTATION": "Cc1cc(C)c(Oc2cc(Nc3ccc(C#N)cc3)nnc2Cl)c(C)c1", "READOUT LABEL": "selectivity ratio", "VALUE PREFIX": "=", "EXPERIMENTAL RESULT": 461}
{"LINE NOTATION": "N#Cc1ccc(Nc2cc(Oc3c(Cl)cccc3Cl)c(Cl)nn2)cc1", "READOUT LABEL": "selectivity ratio", "VALUE PREFIX": "=", "EXPERIMENTAL RESULT": 423}
{"LINE NOTATION": "Cc1cc(C)c(Oc2cc(Nc3ccc([N+](=O)[O-])cc3)nnc2Cl)c(C)c1", "READOUT LABEL": "selectivity ratio", "VALUE PREFIX": "<", "EXPERIMENTAL RESULT": 1}
{"LINE NOTATION": "Cc1cc(C)c(Oc2cc(Nc3ccc(Cl)cc3)nnc2Cl)c(C)c1", "READOUT LABEL": "selectivity ratio", "VALUE PREFIX": "=", "EXPERIMENTAL RESULT": 1510}
{"LINE NOTATION": "Cc1cc(Br)cc(C)c1Oc1cc(Nc2ccc(C#N)cc2)nnc1Cl", "READOUT LABEL": "selectivity ratio", "VALUE PREFIX": "=", "EXPERIMENTAL RESULT": 210}
{"LINE NOTATION": "Cc1ccc(Nc2cc(Oc3c(C)cc(C)cc3C)c(Cl)nn2)cc1", "READOUT LABEL": "selectivity ratio", "VALUE PREFIX": "=", "EXPERIMENTAL RESULT": 1210}
{"LINE NOTATION": "Cc1cc(C#N)cc(C)c1Oc1cc(Nc2ccc(C#N)cc2)nnc1Cl", "READOUT LABEL": "selectivity ratio", "VALUE PREFIX": "=", "EXPERIMENTAL RESULT": 369}
{"LINE NOTATION": "Cc1cc(C#N)cc(C)c1Oc1cc(Nc2ccc(C#N)cc2)n[nH]c1=O", "READOUT LABEL": "selectivity ratio", "VALUE PREFIX": "=", "EXPERIMENTAL RESULT": 96}
{"LINE NOTATION": "COc1ccc(Nc2cc(Oc3c(C)cc(C)cc3C)c(=O)[nH]n2)cc1", "READOUT LABEL": "selectivity ratio", "VALUE PREFIX": "=", "EXPERIMENTAL RESULT": 4}
{"LINE NOTATION": "Cc1cc(C)c(Oc2cc(N(C)c3ccc(C#N)cc3)nn(C)c2=O)c(C)c1", "READOUT LABEL": "selectivity ratio", "VALUE PREFIX": "≥", "EXPERIMENTAL RESULT": 73}

----------
Reported CC50 at 120 h values for the following molecules.
TEST METHOD NOTES: Cytotoxicity against mock-infected human MT4 cells assessed as cell viability after 5 days by MTT assay
Assay type: cell-based
READOUT LABEL: CC50 at 120 h (µM)

{"MOLECULE": "Cc1cc(C)c(Oc2cc(Nc3ccc(C#N)cc3)nnc2Cl)c(C)c1", "READOUT LABEL": "CC50 at 120 h", "VALUE PREFIX": "=", "EXPERIMENTAL RESULT": 36.3}
{"MOLECULE": "Cc1cc(C#N)cc(C)c1Oc1cc(Nc2ccc(C#N)cc2)nnc1Cl", "READOUT LABEL": "CC50 at 120 h", "VALUE PREFIX": "=", "EXPERIMENTAL RESULT": 53.2}
{"MOLECULE": "CC(C)Nc1cccnc1N1CCN(C(=O)c2cc3cc(NS(C)(=O)=O)ccc3[nH]2)CC1 [DELAVIRDINE]", "READOUT LABEL": "CC50 at 120 h", "VALUE PREFIX": ">", "EXPERIMENTAL RESULT": 43.4}
{"MOLECULE": "Cc1cc(C)c(Oc2cc(Nc3ccc([N+](=O)[O-])cc3)nnc2Cl)c(C)c1", "READOUT LABEL": "CC50 at 120 h", "VALUE PREFIX": "=", "EXPERIMENTAL RESULT": 0.94}
{"MOLECULE": "O=C1Nc2ccc(Cl)cc2[C@@](C#CC2CC2)(C(F)(F)F)O1 [EFAVIRENZ]", "READOUT LABEL": "CC50 at 120 h", "VALUE PREFIX": ">", "EXPERIMENTAL RESULT": 2}

Cited source: ChEMBL document CHEMBL2346569
